Data credit: paper PMC11057469

subject-of-test: porcine serum albumin (PSA) (Sus scrofa)
assay-name: in vitro
study-conditions: PSA compared with HSA, from DSF Kd
Each record here notes measured difference in binding affinity, PSA affinity greater than HSA.
property-measured: difference in binding affinity, PSA affinity greater than HSA (%)

structure | scale-unit | observed-result
O=C(O)C(F)(F)C(F)(F)C(F)(F)C(F)(F)C(F)(F)C(F)(F)C(F)(F)F | % | 72.4
O=S(=O)(O)C(F)(F)C(F)(F)C(F)(F)C(F)(F)F | % | 29.4
O=C(O)C(F)(F)C(F)(F)C(F)(F)C(F)(F)C(F)(F)F | % | 57.1
O=C(O)C(F)(F)C(F)(F)C(F)(F)F | % | 69.4

====

subject-of-test: porcine serum albumin (PSA) (Sus scrofa, UniProt P08835)
Sequence (P08835 25-607): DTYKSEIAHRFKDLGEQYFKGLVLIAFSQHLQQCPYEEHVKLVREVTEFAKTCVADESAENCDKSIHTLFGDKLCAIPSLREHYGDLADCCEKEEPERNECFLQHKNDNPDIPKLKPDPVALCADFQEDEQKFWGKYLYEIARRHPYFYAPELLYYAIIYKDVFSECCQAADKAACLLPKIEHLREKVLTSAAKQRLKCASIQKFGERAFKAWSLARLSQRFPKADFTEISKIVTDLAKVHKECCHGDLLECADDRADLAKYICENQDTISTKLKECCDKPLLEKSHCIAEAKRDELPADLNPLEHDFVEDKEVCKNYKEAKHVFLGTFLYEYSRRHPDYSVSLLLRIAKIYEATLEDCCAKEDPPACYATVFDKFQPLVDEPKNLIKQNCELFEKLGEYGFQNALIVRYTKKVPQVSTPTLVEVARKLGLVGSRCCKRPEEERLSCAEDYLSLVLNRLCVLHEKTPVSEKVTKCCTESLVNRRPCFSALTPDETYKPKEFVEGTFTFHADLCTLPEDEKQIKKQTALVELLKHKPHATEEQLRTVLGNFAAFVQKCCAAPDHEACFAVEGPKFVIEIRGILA
assay-name: in vitro
study-conditions: pig, pH 7.4
Protocol: Serum albumin stocks (1 mM) were prepared by reconstituting lyophilized stocks in HBS, with expected protein concentrations confirmed using the colorimetric Bio-Rad DC Protein Assay (Hercules, California). A minimum of 2 independent plates were run for each protein-ligand combination, with 3 replicates per sample on each plate. […]
Each record here notes measured ΔTm.

structure | ΔTm
O=S(=O)(O)C(F)(F)C(F)(F)C(F)(F)C(F)(F)C(F)(F)C(F)(F)C(F)(F)C(F)(F)F | 5.74 °C
O=S(=O)(O)CCC(F)(F)C(F)(F)C(F)(F)C(F)(F)C(F)(F)C(F)(F)F | 8.72 °C

====

subject-of-test: Rat serum albumin (RSA) (Rattus norvegicus)
Sequence (P02770 25-608): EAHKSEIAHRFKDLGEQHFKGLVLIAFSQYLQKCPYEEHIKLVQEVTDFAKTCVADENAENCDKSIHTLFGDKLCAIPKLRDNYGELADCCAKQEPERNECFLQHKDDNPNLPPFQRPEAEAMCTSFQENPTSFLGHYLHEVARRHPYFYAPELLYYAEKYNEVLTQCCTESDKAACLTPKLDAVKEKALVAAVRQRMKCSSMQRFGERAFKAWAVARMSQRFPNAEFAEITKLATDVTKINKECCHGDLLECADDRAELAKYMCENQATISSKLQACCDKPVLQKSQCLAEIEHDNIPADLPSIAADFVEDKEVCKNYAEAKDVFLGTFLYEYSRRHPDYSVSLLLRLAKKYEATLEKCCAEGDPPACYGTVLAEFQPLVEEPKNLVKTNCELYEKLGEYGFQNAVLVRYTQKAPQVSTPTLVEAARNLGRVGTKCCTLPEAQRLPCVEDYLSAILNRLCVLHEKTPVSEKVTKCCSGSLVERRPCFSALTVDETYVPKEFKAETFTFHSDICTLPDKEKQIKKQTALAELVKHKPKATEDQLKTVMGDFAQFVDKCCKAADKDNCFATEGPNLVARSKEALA
assay-name: in vitro
study-conditions: RSA; 1 = highest relative affinity, 4 = lowest
Each record here notes measured rank order of binding affinity among the four albumins.
property-measured: rank order of binding affinity among the four albumins

compound | subject-of-test | observed-result
O=S(=O)(O)C(F)(F)C(F)(F)C(F)(F)C(F)(F)F | Rat serum albumin (RSA) (Rattus norvegicus) | 3
O=S(=O)(O)CCC(F)(F)C(F)(F)C(F)(F)C(F)(F)C(F)(F)C(F)(F)F | Rat serum albumin (RSA) (Rattus norvegicus) | 1
O=C(O)C(F)(F)C(F)(F)C(F)(F)F | Rat serum albumin (RSA) (Rattus norvegicus) | 2
O=C(O)C(F)(F)C(F)(F)C(F)(F)C(F)(F)C(F)(F)F | Rat serum albumin (RSA) (Rattus norvegicus) | 2
O=C(O)C(F)(OC(F)(F)C(F)(F)C(F)(F)F)C(F)(F)F (stereo not drawn) [HFPO-DA, hexafluoropropylene oxide-dimer acid] | Rat serum albumin (RSA) (Rattus norvegicus) | 2
O=C(O)C(F)(F)C(F)(F)C(F)(F)C(F)(F)C(F)(F)C(F)(F)C(F)(F)F | Rat serum albumin (RSA) (Rattus norvegicus) | 2

====

subject-of-test: human serum albumin (HSA) (Homo sapiens)
Sequence (P02768 25-609): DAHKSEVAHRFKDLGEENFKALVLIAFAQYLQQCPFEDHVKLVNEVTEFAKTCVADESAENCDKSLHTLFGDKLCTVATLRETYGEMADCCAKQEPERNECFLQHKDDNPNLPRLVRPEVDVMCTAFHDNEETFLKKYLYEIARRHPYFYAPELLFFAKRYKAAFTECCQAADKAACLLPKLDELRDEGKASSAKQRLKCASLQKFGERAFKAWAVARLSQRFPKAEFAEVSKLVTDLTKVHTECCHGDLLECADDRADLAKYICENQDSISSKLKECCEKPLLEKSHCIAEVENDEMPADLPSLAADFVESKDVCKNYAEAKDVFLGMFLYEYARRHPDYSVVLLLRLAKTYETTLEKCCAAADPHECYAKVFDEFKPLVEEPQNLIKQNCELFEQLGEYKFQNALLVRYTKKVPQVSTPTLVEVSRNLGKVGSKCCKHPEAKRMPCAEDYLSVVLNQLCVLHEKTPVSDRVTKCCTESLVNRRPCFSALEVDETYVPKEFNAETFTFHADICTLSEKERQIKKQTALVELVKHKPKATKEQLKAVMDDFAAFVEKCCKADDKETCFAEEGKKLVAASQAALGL
assay-name: biochemical
Each record here notes measured Kd.

compound | Kd (µM)
O=C(O)C(F)(OC(F)(F)C(F)(F)C(F)(F)F)C(F)(F)F (stereo not drawn) [HFPO-DA, hexafluoropropylene oxide-dimer acid] | 1570
O=C(O)C(F)(F)C(F)(F)C(F)(F)C(F)(F)C(F)(F)C(F)(F)C(F)(F)F [PFOA, perfluorooctanoic acid] | 790
O=C(O)C(F)(F)C(F)(F)C(F)(F)F [PFBA, Perfluorobutanoic acid] | 2640
O=S(=O)(O)C(F)(F)C(F)(F)C(F)(F)C(F)(F)C(F)(F)C(F)(F)C(F)(F)C(F)(F)F [PFOS, perfluorooctanesulfonic acid] | 690
O=S(=O)(O)C(F)(F)C(F)(F)C(F)(F)C(F)(F)F [PFBS, perfluorobutanesulfonic acid] | 1680
O=C(O)C(F)(F)C(F)(F)C(F)(F)C(F)(F)C(F)(F)F [PFHxA, Perfluorohexanoic acid] | 1710
